pIC50: −log10 of the molar value.
Assay system α7-subtype of nicotinic receptors (Rattus norvegicus, UniProt Q05941); read-out recorded as pIC50.

In the examples that follow, each entry is paired with its recorded pIC50.
CN1C2CCCC1CN(c1ccc(-c3ccccc3)nn1)C2	> 6.00
CCN1C2CCCC1CN(c1ccc(-c3ccccc3)nn1)C2 [Compound D1]	> 6.00

Attention now turns to another entry.
(Q) I have this molecule here, CN1C2CCCC1CN(c1ccc(-c3ccsc3)nn1)C2 , and I need its recorded pIC50.
(A) > 6.00

Source: patent US8173658B2
